Assay: Intranasal bioavailability of hydrocodone conjugates in rats, LC/MS/MS
Conditions: male, Sprague-Dawley, rat, plasma, iv, 1 mg/kg
Readout label: Cmax (ng/mL)
Give bare numbers, in ng/mL.

[ask] Any idea what its Cmax is? The compound is COc1ccc2c3c1O[C@H]1C(=O)CC[C@H]4[C@@H](C2)N(C)CC[C@]314 [Hydrocodone, reference compound]
[reply] 543

###

Assay: Crossover pharmacokinetics in dogs, oral vs 30-min intravenous infusion, LC-MS/MS
Assay type: in vivo, male beagle dogs
Conditions: male, beagle, dog, plasma, iv, 1 mg/kg, male beagle dog; IV; 1 mg/kg d-amphetamine base; mean; read-out: Vss of L-lysine-d-amphetamine
Readout label: Vd (L/kg)
Give bare numbers, in L/kg.

[ask] Look up Vd: CC(Cc1ccccc1)NC(=O)C(N)CCCCN (stereo not shown)
[reply] 0.689

###

Assay: Oral bioavailability of hydrocodone conjugates in rats, LC/MS/MS
Conditions: male, Sprague-Dawley, rat, plasma, po, 1 mg/kg
Readout label: concentration at 0.1 h (ng/mL)
Answers are plain numbers, in ng/mL.

[ask] // returns reported concentration at 0.1 h for input COc1ccc2c3c1O[C@H]1C(=O)CC[C@H]4[C@@H](C2)N(C)CC[C@]314 [Hydrocodone, reference compound]
[reply] 114

###

Assay: Oral bioavailability of hydrocodone conjugates in rats, LC/MS/MS
Details: oral, 5 mg/kg dose, 3 Hours
Where a SMILES comes first, the peptide text is derived from it. The star is where a group is joined. X1 = COc1ccc2c3c1O[C@H]1C(O*)=CC[C@H]4[C@@H](C2)N(C)CC[C@]314
Readout label: hydrocodone plus hydromorphone concentration (ng/mL)
Answers are plain numbers, in ng/mL.

Example molecules with recorded hydrocodone plus hydromorphone concentration:
[ask] I would be grateful if you could share the reported hydrocodone plus hydromorphone concentration for CC[C@H](C)[C@H](NC(=O)[C@H](CC(=O)O)NC(=O)[C@@H](N)CC(=O)O)C(=O)OC1=CC[C@H]2[C@H]3Cc4ccc(OC)c5c4[C@@]2(CCN3C)[C@H]1O5 [DDI-HC, Asp-Asp-Ile-Hydrocodone] .
[reply] 11

[ask] For the molecule shown here, CC[C@H](C)[C@H](NC(=O)[C@H](Cc1ccc(O)cc1)NC(=O)[C@@H](N)Cc1ccc(O)cc1)C(=O)OC1=CC[C@H]2[C@H]3Cc4ccc(OC)c5c4[C@@]2(CCN3C)[C@H]1O5 [YYI-HC, Tyr-Tyr-Ile-Hydrocodone] , give the reported hydrocodone plus hydromorphone concentration.
[reply] 3.3

[ask] I'd like to know its hydrocodone plus hydromorphone concentration. The molecule in question is CC[C@H](C)[C@H](NC(=O)[C@H](Cc1ccccc1)NC(=O)[C@H](Cc1ccccc1)NC(=O)[C@H](Cc1ccc(O)cc1)NC(=O)[C@@H](N)Cc1ccc(O)cc1)C(=O)OC1=CC[C@H]2[C@H]3Cc4ccc(OC)c5c4[C@@]2(CCN3C)[C@H]1O5 [YYFFI[SEQ ID NO: 8]-HC] (H-YYFFI-X1)
[reply] 13

Now for another entry.
[ask] Dear colleague, I am looking for the recorded hydrocodone plus hydromorphone concentration of the following molecule: CC[C@H](C)[C@H](NC(=O)[C@H](Cc1ccccc1)NC(=O)[C@H](Cc1ccccc1)NC(=O)[C@H](CCC(=O)O)NC(=O)[C@@H](N)CCC(=O)O)C(=O)OC1=CC[C@H]2[C@H]3Cc4ccc(OC)c5c4[C@@]2(CCN3C)[C@H]1O5 [EEFFI[SEQ ID NO: 5]-HC] (H-EEFFI-X1)
[reply] 5.7
